Test system: full-length human PPARγ (Homo sapiens, UniProt P37231)
Sequence (P37231 29-505): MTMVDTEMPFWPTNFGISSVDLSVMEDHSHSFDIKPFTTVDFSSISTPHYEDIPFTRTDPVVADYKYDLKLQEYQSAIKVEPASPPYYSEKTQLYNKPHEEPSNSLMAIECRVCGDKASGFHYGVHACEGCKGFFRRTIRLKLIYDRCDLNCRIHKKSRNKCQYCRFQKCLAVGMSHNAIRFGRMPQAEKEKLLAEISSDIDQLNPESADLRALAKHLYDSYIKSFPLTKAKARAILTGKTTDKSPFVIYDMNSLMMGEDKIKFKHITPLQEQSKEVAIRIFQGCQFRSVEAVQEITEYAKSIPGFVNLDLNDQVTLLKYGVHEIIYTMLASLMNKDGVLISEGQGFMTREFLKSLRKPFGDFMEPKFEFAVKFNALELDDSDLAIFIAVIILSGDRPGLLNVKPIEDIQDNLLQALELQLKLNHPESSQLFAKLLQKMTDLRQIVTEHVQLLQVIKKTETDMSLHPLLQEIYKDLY
Protocol notes: PPARγ-dependent luciferase reporter gene transactivation in HEK293 cells
Measured property: EC50 (µM)
# output: bare number, implied unit µM

Query: // EC50 lookup, key: C=CCc1ccc(O)c(-c2cc(CC=CCCCc3cc(O)c(-c4cc(CC=C)ccc4O)cc3CC=C)ccc2O)c1 [magnolol dimer (1)]
Result: 1.52

###

Test system: purified human PPARγ LBD (Homo sapiens)
Sequence (P37231 238-503 limits assumed): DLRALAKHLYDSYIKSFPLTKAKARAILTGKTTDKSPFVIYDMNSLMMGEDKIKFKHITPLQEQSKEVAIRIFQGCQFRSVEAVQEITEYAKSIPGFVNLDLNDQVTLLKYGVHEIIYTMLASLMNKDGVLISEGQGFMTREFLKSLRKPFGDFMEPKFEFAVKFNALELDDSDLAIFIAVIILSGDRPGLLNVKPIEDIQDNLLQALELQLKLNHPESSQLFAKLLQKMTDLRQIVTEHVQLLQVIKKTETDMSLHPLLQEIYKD
Measured property: pKi
Note on units: pKi is unitless, being -log10 of a concentration expressed in mol/L.

Query: Dear colleague, I am looking for the recorded pKi of the following compound: C=CCc1ccc(O)c(-c2cc(CC=CCCCc3cc(O)c(-c4cc(CC=C)ccc4O)cc3CC=C)ccc2O)c1 [magnolol dimer (1)]
Result: 8.30
